ASSAY EXPLANATION: logP determination by HPLC (EEC directive 79/831 Annex V.A8, reversed-phase C 18)
Format: physicochemical
SETUP CONDITIONS: reversed-phase HPLC column (C 18), pH 2.3, HPLC, reversed-phase column (C 18), 43° C., pH 2.3, 0.1% aqueous phosphoric acid/acetonitrile; read-out: log P
PROPERTY MEASURED: chromatographic logP

| COMPOUND | PROPERTY MEASURED | REPORTED RESULT |
| --- | --- | --- |
| O=S(=O)(Oc1ccc([C@H]2CC(Cl)(Cl)C(c3c(F)cccc3F)=N2)cc1)C(F)(F)F [Example 5] | chromatographic logP | 4.88 |
| CC1(C)CC(c2ccc(-c3ccc(OC(F)(F)F)cc3)cc2)N=C1c1c(F)cccc1F (stereo not drawn) [Example 11] | chromatographic logP | 5.67 |
| O=S(=O)(Oc1ccc([C@H]2CC(Br)(Br)C(c3c(F)cccc3F)=N2)cc1)C(F)(F)F [Example 9] | chromatographic logP | 4.97 |
| O=S(=O)(Oc1ccc(-c2ccc([C@H]3C[C@H](Cl)C(c4c(F)cccc4F)=N3)cc2)cc1)C(F)(F)F [Example 7] | chromatographic logP | 5.22 |
| CCOS(=O)(=O)C1CC(c2ccc(-c3ccc(OC(F)(F)F)cc3)cc2)N=C1c1c(F)cccc1F (stereo not drawn) [Example 15] | chromatographic logP | 4.77 |
| Fc1cccc(F)c1C1=N[C@@H](c2ccc(-c3ccc(OC(F)(F)F)cc3)cc2)CC1=Cc1ccc(Br)cc1 [Example 14] | chromatographic logP | 6.43 |
| Fc1cccc(F)c1C1=NC(c2ccc(-c3ccc(OC(F)(F)F)cc3)cc2)CC1(Cl)Cl (stereo not drawn) [Example 4] | chromatographic logP | 5.92 |
| CC(C)C=C1CC(c2ccc(-c3ccc(OC(F)(F)F)cc3)cc2)N=C1c1c(F)cccc1F (stereo not drawn) [Example 17] | chromatographic logP | 5.8 |
| CC(C)(C)OC(=O)NC(CC(C)(C)C(=O)c1c(F)cccc1F)c1ccc(-c2ccc(OC(F)(F)F)cc2)cc1 (stereo not drawn) | chromatographic logP | 6.45 |
| Fc1cccc(F)c1C1=NC(c2ccc(-c3ccc(OC(F)(F)F)cc3)cc2)CC1=Cc1ccccc1 (stereo not drawn) [Example 16] | chromatographic logP | 5.77 |
| Fc1cccc(F)c1C1=N[C@@H](c2ccc(-c3ccc(OC(F)(F)F)cc3)cc2)CC1(Br)Br [Example 10] | chromatographic logP | 6.01 |
| Fc1cccc(F)c1C1=N[C@@H](c2ccc(-c3ccc(OC(F)(F)F)cc3)cc2)CC1(Cl)Cl [Example 6] | chromatographic logP | 5.91 |
